Measured %Inh by item
# Test system: RSK1(Kin.Dom.2-C-terminal);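 also: KINOMEscan kinase panel screen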
# Construct: gene RPS6KA1
# ASSAY SETUP: concentration: 1 μM, replicates: in singlicate; n = 1
I only need the number, in %, no unit after it.

MOLECULE	TEST RESULT
Cc1c(Cn2ccn3c(=O)cc(N4CCOCC4)nc23)cccc1C(F)(F)F [GSK2289044]	0

Value of %Inh reported for the molecule COc1ccc(Nc2nccc(NCCNC(=O)Nc3ccccc3F)n2)cc1 [GSK1379901] is 0

Value of %Inh reported for the molecule Cc1cccc(-c2nc(C)cc(Nc3ccncc3)n2)n1 [GSK257997] is 2

Value of %Inh reported for the molecule Cc1csc(-c2nc(Nc3ccncc3)c3ccccc3n2)n1 [GW869640] is 22

Value of %Inh reported for the molecule Cn1ccc2ncnc(Oc3ccc(Nc4nc5ccccc5[nH]4)cc3)c21 is 0
